- assay: gradient 5% acetonitrile 3 min, to 50% in 2 min, to 85% in 15 min, held 3 min, 100 µL/min
- condition_parameters: column: Zorbax Extend-C18 2.1 x 50 mm; eluents: water / acetonitrile, 0.1% formic acid
observation_type: RP-LC retention time (s)

Endpoint output: RP-LC retention time of CCCCN1C(=O)C(CC(=O)NC2CCCC2)Sc2ncccc21 (configuration not stated) . Value?
808

Endpoint output: RP-LC retention time of CCC(C(=O)NCc1ccco1)n1c2ccccc2c2cnn(C)c(=O)c21 (configuration not stated) . Value?
777

Endpoint output: RP-LC retention time of COCCOCc1nc(C2CCN(S(=O)(=O)c3cc(F)ccc3F)CC2)no1 . Value?
806

Endpoint output: RP-LC retention time of Cc1ccc(NC(=O)Cc2csc3nc(-c4ccccc4)cn23)c(Br)c1 . Value?
872

Endpoint output: RP-LC retention time of CCc1ccc(S(=O)(=O)N2CCCN(c3ccc(=O)n(-c4ccccc4)n3)CC2)cc1 . Value?
904

Endpoint output: RP-LC retention time of COCc1noc(C2CCCCN2C(=O)Cc2c(C)noc2C)n1 (configuration not stated) . Value?
673

Endpoint output: RP-LC retention time of CN1CCCc2cc(C(CNC(=O)C(=O)NCc3ccccc3)N3CCCCC3)ccc21 (configuration not stated) . Value?
746

====

- assay: gradient 5% acetonitrile 3 min, to 50% in 2 min, to 85% in 15 min, held 3 min, 100 µL/min
- condition_parameters: column: Zorbax Extend-C18 2.1 x 50 mm; eluents: water / acetonitrile, 0.1% formic acid
observation_type: RP-LC retention time (s)

Some compounds with recorded RP-LC retention time:
Endpoint output: RP-LC retention time of O=C(NC1CCCC1)c1ccc2c(c1)N(Cc1ccccc1)C(=O)CO2 . Value?
873

Endpoint output: RP-LC retention time of COc1ccccc1NC(=O)C1CCCN(S(=O)(=O)c2c[nH]c(C(=O)N3CCCCCC3)c2)C1 (centres undefined) . Value?
898

Endpoint output: RP-LC retention time of CCS(=O)(=O)Nc1ccc2nc(N3CCN(c4ccc(OC)cc4)CC3)cc(C(=O)O)c2c1 . Value?
626

1 = COc1ccc(-c2nnc(N3CCC(C(=O)NCCN4CCCC4)CC3)o2)cc1
2 = CCOC(=O)c1ccccc1NC(=O)Cn1c(-c2ccc(F)cc2)nc(C)cc1=O
Please choose the item with the lower RP-LC retention time value from this pair: 1 and 2 Label of pick, please.
1
(1: 590 s, 2: 1320 s)

a = COCCCNCc1c(C(=O)O)c(C)n(Cc2ccccc2Cl)c1C
b = CCCN1C(=O)COc2ccc(-c3noc(-c4cccc(F)c4)n3)cc21
Please choose the item with the lower RP-LC retention time value from this pair: a and b Label of pick, please.
a

====

- assay: gradient 5% acetonitrile 3 min, to 50% in 2 min, to 85% in 15 min, held 3 min, 100 µL/min
- condition_parameters: column: Zorbax Extend-C18 2.1 x 50 mm; eluents: water / acetonitrile, 0.1% formic acid
observation_type: RP-LC retention time (s)

Endpoint output: RP-LC retention time of COC(=O)C(C)NC(=O)NCc1cccn1Cc1ccccc1F (stereo not drawn) . Value?
804

1 = O=C(c1ccn[nH]1)N1C[C@@H]2C(=O)N(CCc3ccccc3)C(=O)[C@@H]2C1
2 = COc1ccc(-n2c(=O)c(C(=O)NCc3ccc(F)cc3F)c(O)c3cccnc32)cc1
Which record would sort first by descending RP-LC retention time, 1 or 2 ? Label of pick, please.
2
(2: 1170 s, 1: 656 s)
